meta.source: the supplement of paper PMC10567573

Each entry below carries its reported protein stability index.
B1: MYBL2 (parent)
chain: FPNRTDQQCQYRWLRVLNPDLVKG

Variants of: B1
Experiment: protein stability index of a GFP-peptide fusion (GPS, HEK-293T) (PSI 1-6); higher = more stable;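 also: lentivirally expressed fusions sorted by FACS into six bins by GFP to DsRed ratio, PSI derived from sequencing read proportions per bin multiplied by bin number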
Conditions: c terminus: a fixed tail appended
Answer as a number with no unit attached.

Q: Please report the measured protein stability index for R4A
A: 1.99

Q: Give the value of protein stability index reported for the following: C9I
A: 2.16

Q: Provide one value: measured protein stability index of D20P
A: 2.35

Q: Hello, please tell me recorded protein stability index for this one: Q8F
A: 1.71

Q: Note down protein stability index recorded for T5S
A: 1.86

Q: Please indicate protein stability index recorded for K23V
A: 1.4

Further cases:
Q: Give protein stability index for P19C
A: 2.5

Q: Dear colleague, please send me the reported protein stability index for V16A when you can.
A: 1.87

Q: Fill in protein stability index for record D6W
A: 1.75

Q: Supply recorded protein stability index for G24H here.
A: 1.41

Q: Given T5E , respond with its protein stability index.
A: 2.29
